- assayDetails: GC retention time (DB-5MS, GC-APCI); higher = later elution
Binary call on GC retention time: t from 20 min upward, f beneath that.

Consider the worked cases shown below.
Clc1ccc(Cl)c(-c2ccccc2Cl)c1 [PCB 18] (APCI source condition: Dry, base ion: M+.)	f
C=C(Br)COc1c(Br)cc(Br)cc1Br [2-Bromoallyl 2,4,6-tribromophenyl ether] (APCI source condition: Dry, base ion: [M-Br]+)	f
Clc1cc(-c2ccccc2)c(Cl)c(Cl)c1Cl [PCB 61] (APCI source condition: Dry, base ion: M+.)	f
c1ccc2c(c1)ccc1ccc3ccccc3c12 [Benzo(c)phenanthrene] (APCI source condition: Dry, base ion: M+.)	t

Assess whether reported GC retention time for Brc1ccc(Oc2ccc(Br)c(Br)c2Br)c(Br)c1 [PBDE 85] (APCI source condition: Dry, base ion: M+.) sits at 20 min or higher.
t
